The values you see were collected from ChEMBL document CHEMBL5126581.

Overview of reported pKi across a group of molecules:
- Target System: UniProtKB P00915
- Sequence (P00915 whole entry): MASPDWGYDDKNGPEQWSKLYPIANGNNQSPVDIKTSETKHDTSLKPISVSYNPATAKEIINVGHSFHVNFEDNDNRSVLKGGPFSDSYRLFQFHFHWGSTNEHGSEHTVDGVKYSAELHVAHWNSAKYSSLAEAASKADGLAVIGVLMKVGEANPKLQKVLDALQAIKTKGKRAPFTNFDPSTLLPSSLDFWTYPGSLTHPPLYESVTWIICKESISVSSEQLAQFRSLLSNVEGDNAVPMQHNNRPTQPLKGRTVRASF
- Method Description: Inhibition of recombinant human carbonic anhydrase 1 assessed as inhibition constant incubated for 1 hr prior to testing by phenol red based stopped-flow CO2 hydration assay
pKi: −log10 of the molar value.

// solved cases for pKi follow
[
  {
    "Mol Smiles": "O=S1(=O)N=C(NCc2ccc(OC(F)(F)F)cc2)Nc2ccc(Br)cc21",
    "Target System": "UniProtKB P00915",
    "Observation Type": "pKi",
    "Observed Result": "< 4.00"
  },
  {
    "Mol Smiles": "COc1ccc(CNC2=NS(=O)(=O)c3cc(Cl)ccc3N2)cc1",
    "Target System": "UniProtKB P00915",
    "Observation Type": "pKi",
    "Observed Result": "< 4.00"
  },
  {
    "Mol Smiles": "NS(=O)(=O)c1ccc(CCNC2=NS(=O)(=O)c3ccc(Cl)cc3N2)cc1",
    "Target System": "UniProtKB P00915",
    "Observation Type": "pKi",
    "Observed Result": 7.30
  }
]

Let us move to another entry and its pKi.
Problem: Request the reported pKi associated with `COc1ccc(CCNC2=NS(=O)(=O)c3cc(F)ccc3N2)cc1`
Result: < 4.00

----------
- Target System: Carbonic anhydrase 12 (Homo sapiens, UniProt O43570)
- Sequence (O43570 whole entry): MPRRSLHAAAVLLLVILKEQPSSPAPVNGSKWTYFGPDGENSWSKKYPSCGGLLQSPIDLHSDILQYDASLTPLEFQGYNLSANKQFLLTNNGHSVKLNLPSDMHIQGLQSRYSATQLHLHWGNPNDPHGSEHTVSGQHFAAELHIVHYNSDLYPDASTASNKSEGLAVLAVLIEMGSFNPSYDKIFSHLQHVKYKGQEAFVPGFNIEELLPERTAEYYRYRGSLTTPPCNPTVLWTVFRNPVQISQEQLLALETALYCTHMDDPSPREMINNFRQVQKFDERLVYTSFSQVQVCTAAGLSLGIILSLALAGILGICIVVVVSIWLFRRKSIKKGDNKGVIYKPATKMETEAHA
- Method Description: Inhibition of recombinant human carbonic anhydrase 12 assessed as inhibition constant incubated for 1 hr prior to testing by phenol red based stopped-flow CO2 hydration assay
Overview of reported Ki across a group of compounds:

// solved cases for Ki follow
[
  {
    "Mol Smiles": "O=S1(=O)N=C(NCc2ccc(OC(F)(F)F)cc2)Nc2ccc(Br)cc21",
    "Observed Result": "> 100 µM"
  },
  {
    "Mol Smiles": "NS(=O)(=O)c1ccc(CCNC2=NS(=O)(=O)c3ccc(Cl)cc3N2)cc1",
    "Observed Result": "0.0038 µM"
  },
  {
    "Mol Smiles": "COc1ccc(CCNC2=NS(=O)(=O)c3cc(F)ccc3N2)cc1",
    "Observed Result": "> 100 µM"
  }
]

Let us move to another entry and its Ki.
Problem: Request the reported Ki associated with `COc1ccc(CNC2=NS(=O)(=O)c3cc(Cl)ccc3N2)cc1`
Result: > 100 µM

----------
- Target System: Carbonic anhydrase 9 (Homo sapiens)
- Method Description: Inhibition of recombinant human carbonic anhydrase 9 assessed as inhibition constant incubated for 1 hr prior to testing by phenol red based stopped-flow CO2 hydration assay
Overview of reported Ki across a group of compounds:

[
  {
    "Mol Smiles": "COc1ccc(CNC2=NS(=O)(=O)c3cc(Cl)ccc3N2)cc1",
    "Observed Result": "> 100 µM"
  },
  {
    "Mol Smiles": "COc1ccc(CCNC2=NS(=O)(=O)c3cc(F)ccc3N2)cc1",
    "Observed Result": "> 100 µM"
  }
]

Problem: Request the reported Ki associated with `O=S1(=O)N=C(NCc2ccc(OC(F)(F)F)cc2)Nc2ccc(Br)cc21`
Result: > 100 µM

----------
- Method Description: Cytotoxicity against HEK293 cells assessed as inhibition of cell growth at 50 uM incubated for 72 hrs by MTS assay relative to control
- Assay type: toxicity, cell-based
- Settings: human
Observation Type: inhibition at 72 h, 50 µM (%)
Provide the reading as a plain figure in %.

Problem: Request the reported inhibition at 72 h, 50 µM associated with `CNC(=O)c1cc(Oc2ccc(NC(=O)Nc3ccc(Cl)c(C(F)(F)F)c3)cc2)ccn1`
Result: 99
